Target: T1, UNK ZnF1-6 (called full-length) (human, UniProt Q9C0B0 30-357)
T1 sequence: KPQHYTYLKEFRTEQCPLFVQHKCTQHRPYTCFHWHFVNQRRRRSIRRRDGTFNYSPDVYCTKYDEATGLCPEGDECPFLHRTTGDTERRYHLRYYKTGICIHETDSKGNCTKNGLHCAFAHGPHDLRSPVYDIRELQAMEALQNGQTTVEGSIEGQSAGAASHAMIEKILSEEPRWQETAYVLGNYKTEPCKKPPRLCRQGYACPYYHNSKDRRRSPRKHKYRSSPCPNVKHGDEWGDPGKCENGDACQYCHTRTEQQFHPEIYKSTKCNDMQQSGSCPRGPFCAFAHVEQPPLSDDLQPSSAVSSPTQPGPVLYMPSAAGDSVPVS
Assay: nsRBNS (natural sequence RNA bind-n-seq); RBNS binding buffer (assumed for nsRBNS): 25 mM Tris pH 7.5, 150 mM KCl, 3 mM MgCl2, 0.01% Triton X-100, 500 ug/ml BSA, 20 U/ml SUPERase-In, 4 C; UNK is unkempt and MSI1 is Musashi-1; names of the RNAs are library labels; protein concentration not given here; high values mean tight binding
Over roughly 5,800 sequences, “enrichment r” has its median near 0.68; the highest 2% begin near 11. Shown is part of a subset that was picked to be rich in the highest values.
Please assign no (0) whenever binding signal is at or above 1 enrichment R, and yes (1) whenever it is below.

# example entries with known answers
Lab note: confirm whether the reported binding signal for this binder is below 1 enrichment R, equality not counting. binder: chr11:2928445:2928542:-|3pUTR|ENSG00000181649|msi1_unk|FALSE|overlapping (ssRNA) RNA: GGGAGUUCUACAGUCCGACGAUCAUUGGACUAUCUAAUAUCUAUGUAUUUAUUUCGCUGGUUCUUUGUAGUCACAUAUUUUAUAGUCUUAAUAUCUUGUUUUUGCAUCACUGUGCCCAUUGCAAAUAAAUCACUUGGCCAGUUCAACAGAGGAUUGAGCAUCA
no (0)

Try this binder next: chr5:141515350:141515460:-|3pUTR|ENSG00000131504|msi1_unk|FALSE|overlapping (ssRNA) RNA: GGGAGUUCUACAGUCCGACGAUCCUCAGCUUUCCAUCCCCAGCUAGGAAGAAAGAAUGGCACUCUUGGGCUUGGCCCAGAAUUAGAGUUAUUAGAGCAAGAGAGAGCUUAGGAAGCAUGAGGGCAACUAUAGUGAGGCCUUAUCAACAGAGGAUUGAGCAUCA
no (0)

Try this binder next: chr4:54297753:54297953:+|3pUTR|ENSG00000134853|msi1|FALSE|unique (ssRNA) RNA: GGGAGUUCUACAGUCCGACGAUCUUUUUAUGAUGACAAUCAAAGCCGGCCUGAGAAACACUAUUUGUGACUUUUUAAACGAUUAGUGAUGUCCUUAAAAUGUGGUCUGCCAAUCUGUACAAAAUGGUCCUAUUUUUGUGAAGACAACAGAGGAUUGAGCAUCA
yes (1)

Try this binder next: ENSG00000156687:stop:overlap|stop_codon|ENSG00000156687|stop_codon|NA|stop_codon (ssRNA) RNA: GGGAGUUCUACAGUCCGACGAUCACAUUUCAGAAUCCCAGCUUGAUGAAGCCGACUUCAACUACAGCAGGCAAAAUGGACUCUAGUCCACUUCCUCCCAUGAGACAGAGUGAUGGCCAGCUUGGGGACAUUUGCUUUAAAUGGCAACAGAGGAUUGAGCAUCA
yes (1)

Try this binder next: chr3:120327094:120327202:-|3pUTR|ENSG00000163428|unk|FALSE|unique (ssRNA) RNA: GGGAGUUCUACAGUCCGACGAUCGAAGAGAAGUCACCAAACACCUAGGGACAGUCCUAGGCCUAGAAAGCCCUUUAAAGUAAUAGUGAAUUGUUUUAAAAUUAAGUUAUUGAGUGGCCUACUGACUACCAUCCAAAAACCUUUCAACAGAGGAUUGAGCAUCA
no (0)

***
Lab note: confirm whether the reported binding signal for this binder is below 1 enrichment R, equality not counting. binder: chr1:45660322:45660423:-|5pUTR|ENSG00000159592|unk|FALSE|unique (ssRNA) RNA: GGGAGUUCUACAGUCCGACGAUCUCCCCUUCCCCCCUUCCCCUUUUCCCCUUUCCCCUUUUGGAAACGUGUCAGGAACCAAAUAGUUUAAGAUGAGCAGUUGAGGGGACUGAGAGAGUGAUCGACACAGAACCUGGCUUCUUCCAACAGAGGAUUGAGCAUCA
yes (1)
